// data source = patent EP0039809A2

- METHOD: Acute toxicity in the mouse
- ASSAY_SETUP: in vivo, oral (gavage), Chbb:NMRI(SPF) mice of both sexes, deaths within 14 days, read-out: Akute Toxizität Maus [LD50]
ENDPOINT_NAME: LD50 at 336 h

- COMPOUND: "COc1cc2sc(N)nc2cc1Cl [2-Amino-5-chlor-6-methoxy-benzothiazol]"
  ENDPOINT_NAME: "LD50 at 336 h"
  RESULT_VALUE: "3050 mg/kg"
